Reported Kd by item:
- measured-on: ATP-dependent Clp protease ATP-binding subunit ClpC1 (Mycobacterium tuberculosis, UniProt P9WPC9)
- Sequence (P9WPC9 whole entry, the tested form may be a part): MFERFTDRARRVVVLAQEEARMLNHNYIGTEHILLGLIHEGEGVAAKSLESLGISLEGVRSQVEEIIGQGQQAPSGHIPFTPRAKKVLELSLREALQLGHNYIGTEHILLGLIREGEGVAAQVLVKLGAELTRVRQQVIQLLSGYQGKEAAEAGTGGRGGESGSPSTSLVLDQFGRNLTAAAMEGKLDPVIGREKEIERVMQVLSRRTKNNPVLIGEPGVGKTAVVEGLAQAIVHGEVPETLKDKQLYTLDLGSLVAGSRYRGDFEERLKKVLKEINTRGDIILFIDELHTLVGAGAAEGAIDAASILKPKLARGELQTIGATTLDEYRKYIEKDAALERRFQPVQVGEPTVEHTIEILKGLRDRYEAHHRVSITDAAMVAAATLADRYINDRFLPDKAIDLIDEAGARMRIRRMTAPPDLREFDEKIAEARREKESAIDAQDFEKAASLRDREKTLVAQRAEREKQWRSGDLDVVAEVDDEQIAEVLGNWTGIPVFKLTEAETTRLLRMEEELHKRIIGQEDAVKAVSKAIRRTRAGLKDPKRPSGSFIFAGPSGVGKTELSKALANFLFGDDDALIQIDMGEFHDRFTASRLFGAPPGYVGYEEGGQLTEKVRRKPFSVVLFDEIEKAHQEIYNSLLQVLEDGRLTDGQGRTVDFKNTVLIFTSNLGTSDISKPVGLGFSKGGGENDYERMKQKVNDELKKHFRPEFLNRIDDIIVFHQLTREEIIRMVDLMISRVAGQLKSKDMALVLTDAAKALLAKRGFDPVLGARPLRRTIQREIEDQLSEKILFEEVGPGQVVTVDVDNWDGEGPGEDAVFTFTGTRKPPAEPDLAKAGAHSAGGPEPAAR
- protocol-details: Binding affinity to recombinant Mycobacterium tuberculosis H37Rv N-terminal His6-tagged ClpC1 (1 to 145 residues) expressed in Escherichia coli BL21 cells by surface plasmon resonance analysis
Starred links: 1 amine or outer side, 2 acyl side, 3 side chain; linkers in the order of their positions; H or OH if unused. Non-standard residues stand in square brackets, D forms with d. Residues, ends and D or L forms follow the SMILES beside them. Trp(1-(1,1-Me2-allyl)) = C=CC(C)(C)n1cc(C[C@H](N)C(=O)O)c2ccccc21; Tyr(3-NO2) = N[C@@H](Cc1ccc(O)c([N+](=O)[O-])c1)C(=O)O; X2 = C[C@H](CO)C[C@@H](C(=O)[*:2])N(C)[*:1]; Gly(E-crotyl) = C/C=C/C[C@H](N)C(=O)O; NMeL = CN[C@@H](CC(C)C)C(=O)O
Reply numerically in nM, unit not repeated.

compound	Kd / nM
C=CC(C)(C)n1cc(C[C@@H]2NC(=O)[C@H](C/C=C/C)NC(=O)[C@H](CC(C)C)NC(=O)[C@H](C[C@H](C)CO)N(C)C(=O)[C@H](C)NC(=O)[C@H](Cc3ccc(O)c([N+](=O)[O-])c3)NC(=O)[C@H](CC(C)C)N(C)C2=O)c2ccccc21 (cyclo(A[X2]L[Gly(E-crotyl)][Trp(1-(1,1-Me2-allyl))][NMeL][Tyr(3-NO2)]))	1100

Supply reported Kd belonging to this compound: C=CC(C)(C)n1cc(C[C@@H]2NC(=O)[C@H](C/C=C/C)NC(=O)[C@H](CC(C)C)NC(=O)[C@H](CC(C)C)N(C)C(=O)[C@H](C)NC(=O)[C@H](Cc3ccc(O)cc3)NC(=O)[C@H](CC(C)C)N(C)C2=O)c2ccccc21 (HELM PEPTIDE1{A.[meL].L.[C/C=C/C[C@H](N[*:1])C(=O)[*:2]].[C=CC(C)(C)n1cc(C[C@H](N[*:1])C(=O)[*:2])c2ccccc21].[meL].Y}$PEPTIDE1,PEPTIDE1,1:R1-7:R2$$$V2.0)
1200

# credit: ChEMBL document CHEMBL4613246
